tested on: T1, BSA-conjugated Aβ heptapeptide FFAEDVC (C-terminal Cys coupled to NSMP-activated BSA);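 also: ELISA binding of human antibody (10 or 2 µg/ml) to plate-coated BSA–peptide conjugates, detected with HRP anti-human Ig and TMB colour, mock-treated BSA as negative control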
T1 construct: also called Peptide 19-24
T1 peptide: FFAEDVC
protocol description: ELISA
For each entry below, report its OD ratio 19-24/BSA value.
One number for each entry.

MS-R #7.9.H7 IgG1 (antibody, V domains shown, full-length human IgG1; also called MAB 31; MS-Roche IgG #7.9.H7) VH: QVELVESGGGLVQPGGSLRLSCAASGFTFSSYAMSWVRQAPGKGLEWVSAINASGTRTYYADSVKGRFTISRDNSKNTLYLQMNSLRAEDTAVYYCARGKGNTHKPYGYVRYFDVWGQGTLVTVSS VL: DIVLTQSPATLSLSPGERATLSCRASQSVSSSYLAWYQQKPGQAPRLLIYGASSRATGVPARFSGSGSGTDFTLTISSLEPEDFATYYCLQIYNMPITFGQGTKVEIKR : 10
MS-R IgG1 3.6.H5 × 3.6.L2 (antibody, V domains shown, full-length human IgG1; VH entry starts at QLVESGG) VH: ELVESGGGLVQPGGSLRLSCAASGFTFSSYAMSWVRQAPGKGLEWVSAISESGKTKYYADSVKGRFTISRDNSKNTLYLQMNSLRAEDTAVYYCARLTHYARYYRYFDVWGQGTLVTVSS VL: DIVLTQSPATLSLSPGERATLSCRASQFLSRYYLAWYQQKPGQAPRLLIYGASSRATGVPARFSGSGSGTDFTLTISSLEPEDFAVYYCQQTYNYPPTFGQGTKVEIKR : 8

Switching to the query record.
Value lookup for OD ratio 19-24/BSA; key = MS-R IgG1 7.9.H3 (antibody, V domains shown, full-length human IgG1; also called 7.9H3 IgG) VH: QVELVESGGGLVQPGGSLRLSCAASGFTFSSYAMSWVRQAPGKGLEWVSAINYQGNRKYYADSVKGRFTISRDNSKNTLYLQMNSLRAEDTAVYYCARGKGNTHKPYGYVRYFDVWGQGTLVTVSS VL: DIVLTQSPATLSLSPGERATLSCRASQSVSSSYLAWYQQKPGQAPRLLIYGASSRATGVPARFSGSGSGTDFTLTISSLEPEDFATYYCLQIYNMPITFGQGTKVEIK 6

Where do these numbers come from? They come from patent US20100172907A1.
